- subjectOfTest: human DR5 (human)
- assayDetails: SPR (BIAcore X100), human DR5 on CM5 chip, IgG injected, 1:1 Langmuir model
// reported kon for each item listed
Answer format: numeric, M⁻¹ s⁻¹ implied, no suffix.

>>> valueobserved("DA2 (antibody, V domains shown) VH: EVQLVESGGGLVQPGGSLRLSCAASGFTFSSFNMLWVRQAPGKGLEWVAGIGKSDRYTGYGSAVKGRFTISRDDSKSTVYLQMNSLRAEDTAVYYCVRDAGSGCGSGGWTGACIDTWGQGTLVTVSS VL: DIQMTQSPSSLSASVGDRVTITCSGGDSYAGSYYYGWYQQKPGKAPKTLIYNNNNRPSGVPSRFSGSRSGTDFTLTISSLQPEDFATYYCGSRDSSYVGIFGQGTKVEIK")
"1.9e+06"
>>> valueobserved("DA33 (antibody, V domains shown) VH: AVTLDESGGGLQTPGGGLSLVCKGSGFTFSSFNMLWVRQAPGKGLEWVAGIGKSDRYTGYGSAVKGRATISRDDGQSTARLQLNNLRAEDTAVYYCVKDAGSGCGSGGWTGACIDTWGHGTEVIVSS VL: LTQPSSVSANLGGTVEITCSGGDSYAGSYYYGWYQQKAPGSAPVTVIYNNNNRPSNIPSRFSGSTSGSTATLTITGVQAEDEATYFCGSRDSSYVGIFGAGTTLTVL")
"1.24e+06"
>>> valueobserved("DA15 (antibody, V domains shown) VH: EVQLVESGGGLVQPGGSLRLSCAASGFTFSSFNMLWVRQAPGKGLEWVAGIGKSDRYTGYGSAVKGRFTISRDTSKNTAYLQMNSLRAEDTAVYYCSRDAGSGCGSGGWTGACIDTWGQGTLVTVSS VL: DIQMTQSPSSLSASVGDRVTITCSGGDSYAGSYYYGWYQQKPGKAPKTLIYNNNNRPSGVPSRFSGSRSGTDFTLTISSLQPEDFATYYCGSRDSDGGGRFGQGTKVEIK")
"2.56e+06"

The value of kon measured for the binder DA23 (antibody, V domains shown) VH: EVQLVESGGGLVQPGGSLRLSCAASGFTFSSFNMLWVRQAPGKGLEWVAGIGKSDRYTGYGSAVKGRFTISRDDSKSTVYLQMNSLRAEDTAVYYCVRDAGSPCGKGGWTGACIDTWGQGTLVTVSS VL: DIQMTQSPSSLSASVGDRVTITCSGGDSYAGSYYYGWYQQKPGKAPKTLIYNNNNRPSGVPSRFSGSTSGTDFTLTISSLQPEDFATYYCGSRDSSYVGIFGQGTKVEIK turned out to be 696000

The value of kon measured for the binder DA8 (antibody, V domains shown) VH: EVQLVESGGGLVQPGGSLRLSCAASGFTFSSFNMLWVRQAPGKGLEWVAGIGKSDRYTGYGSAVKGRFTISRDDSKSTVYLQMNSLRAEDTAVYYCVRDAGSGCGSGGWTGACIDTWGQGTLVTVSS VL: DIQMTQSPSSLSASVGDRVTITCSGGDSYAGSYYYGWYQQKPGKAPKTLIYNNNNRPSGVPSRFSGSGSGTDFTLTISSLQPEDFATYYCGSRDSSYVGIFGQGTKVEIK turned out to be 1.6e+06

The value of kon measured for the binder DA16 (antibody, V domains shown) VH: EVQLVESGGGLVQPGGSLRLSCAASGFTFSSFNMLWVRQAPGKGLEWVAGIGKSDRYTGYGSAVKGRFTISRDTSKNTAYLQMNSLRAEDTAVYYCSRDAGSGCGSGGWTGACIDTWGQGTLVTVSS VL: DIQMTQSPSSLSASVGDRVTITCSGGDSYAGSYYYGWYQQKPGKAPKTLIYNNNNRPSGVPSRFSGSRSGTDFTLTISSLQPEDFATYYCGSRDSSGAGGFGQGTKVEIK turned out to be 2.11e+06

The value of kon measured for the binder DA4 (antibody, V domains shown) VH: EVQLVESGGGLVQPGGSLRLSCAASGFTFSSFNMLWVRQAPGKGLEWVAGIGKSDRYTGYGSAVKGRFTISRDDSKNTVYLQMNSLRAEDTAVYYCVRDAGSGCGSGGWTGACIDTWGQGTLVTVSS VL: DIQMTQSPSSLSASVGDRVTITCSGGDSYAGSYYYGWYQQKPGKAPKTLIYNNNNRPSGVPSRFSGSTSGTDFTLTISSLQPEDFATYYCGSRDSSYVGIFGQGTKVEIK turned out to be 1.2e+06

The value of kon measured for the binder DA27 (antibody, V domains shown) VH: AVTLDESGGGLQTPGGGLSLVCKGSGFTFSSFNMLWVRQAPGKGLEWVAGIGKSDRYTGYGSAVKGRATISRDDGQSTVRLQLNNLRAEDTGTYYCVKDAGSGCGSGGWTGACIDTWGHGTEVIVSS VL: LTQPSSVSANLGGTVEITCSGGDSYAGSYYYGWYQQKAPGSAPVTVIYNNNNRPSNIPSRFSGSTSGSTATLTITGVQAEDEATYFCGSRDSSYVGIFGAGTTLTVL turned out to be 1.17e+06

The value of kon measured for the binder DA9 (antibody, V domains shown) VH: EVQLVESGGGLVQPGGSLRLSCAASGFTFSSFNMLWVRQAPGKGLEWVAGIGKSDRYTGYGSAVKGRFTISRDDSKSTLYLQMNSLRAEDTAVYYCVRDAGSGCGSGGWTGACIDTWGQGTLVTVSS VL: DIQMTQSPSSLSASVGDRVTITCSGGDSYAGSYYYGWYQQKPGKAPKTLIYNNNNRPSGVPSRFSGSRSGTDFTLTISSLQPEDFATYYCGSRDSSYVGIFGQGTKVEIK turned out to be 5.6e+06

The value of kon measured for the binder DA17 (antibody, V domains shown) VH: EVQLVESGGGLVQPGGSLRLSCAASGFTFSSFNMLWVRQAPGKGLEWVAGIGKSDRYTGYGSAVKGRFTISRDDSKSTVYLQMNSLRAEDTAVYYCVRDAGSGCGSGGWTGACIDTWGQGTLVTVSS VL: DIQMTQSPSSLSASVGDRVTITCSGGDSYAGSYYYGWYQQKPGKAPKTLIYNNNNKAKGVPSRFSGSRSGTDFTLTISSLQPEDFATYYCGSRDSSYVGIFGQGTKVEIK turned out to be 2.54e+06

Values from patent US20230133381A1
